tested on: OVCAR-8 ovarian; test: NCI-60 one-dose screen, 48 h; details: 10 µM unless noted
The panel holds about 83,000 compounds, 20% with a hit somewhere; the sample as a whole holds those more often. Activity calls are given as the source filed them. Rule for the calls: active = growth percent below 10; inactive = the rest.
Possible outcomes: active, inactive

- compound: "O=C(COc1cccc(/C=C2\\COc3ccc(Cl)cc3C2=O)c1)c1ccc(Cl)cc1"
  class_assignment: "inactive"
- compound: "O=C(O)c1ccc(NC(=O)c2ccc(-c3cccc([N+](=O)[O-])c3)o2)cc1"
  class_assignment: "inactive"
- compound: "CC1=C[C@H]2c3c(c(O)c(O)c4oc5ccccc5c(=O)c34)[C@H](c3cc(O)c(O)c4oc5ccccc5c(=O)c34)[C@H]2C(C)(C)C1"
  class_assignment: "active"
- compound: "COc1cc2nc(N3CCCC3)nc(NCc3ccccc3)c2cc1OC"
  class_assignment: "inactive"
- compound: "CSc1nc2c(c(=O)[nH]1)C1(C(=O)Nc3ccccc31)c1c(nc(SC)[nH]c1=O)N2"
  class_assignment: "inactive"
- compound: "Cn1cc(-c2nonc2-c2cn(C)c3ccc(F)cc23)c2cc(F)ccc21"
  class_assignment: "inactive"
- compound: "COc1ccc2c(c1)O/C(=C\\c1cccc(OCC(=O)Nc3nc4c(s3)CCCC4)c1)C2=O"
  class_assignment: "active"
- compound: "COC(=O)c1cccc(NC(=O)c2ccc(-c3cccc(N)c3)o2)c1"
  class_assignment: "inactive"
- compound: "COc1ccc(CCNc2nc3c(c(=O)n(Cc4ccc(Br)cc4)c(=O)n3C)n2C)cc1OC"
  class_assignment: "inactive"
- compound: "CC(=O)c1cc2c(N)c(C(=O)Nc3ccccc3)sc2nc1C"
  class_assignment: "inactive"
- compound: "CCN(CC)c1ccc2c(c1)Oc1nc(N)c(C#N)c(N)c1C2Sc1ccc(SC)cc1 (stereo unspecified)"
  class_assignment: "active"
- compound: "O=C1/C(=C/c2ccc(OCCCOc3ccc(Cl)cc3)cc2)N=C2SCCCN12"
  class_assignment: "inactive"
- compound: "CCCCC/C(C=C(C#N)C#N)=C/c1ccccc1"
  class_assignment: "inactive"
- compound: "COc1ccc(CN2c3ccccc3Oc3ccccc32)cc1O"
  class_assignment: "inactive"
- compound: "CC(=O)O[C@H]1CC[C@]2(C)[C@H]3CC=C4[C@@H]5CC(C)(C)CC[C@]5(C(=O)NCCNCCN)CC[C@@]4(C)[C@]3(C)CC[C@H]2C1(C)C"
  class_assignment: "active"
- compound: "C=C1C(=O)O[C@H]2[C@H]1CC/C(C=Nc1ccc(C(F)(F)F)cc1N)=C\\CC[C@@]1(C)O[C@@H]21"
  class_assignment: "active"
- compound: "c1ccc(-c2cc3n4c(-c5ccccc5)nn(-c5ccccc5)c4cnc-3n2)cc1"
  class_assignment: "inactive"
- compound: "C#Cc1cccc(NC(=O)c2ccccc2NC(=O)C=C)c1"
  class_assignment: "inactive"
- compound: "CCc1nc(N)nc(N)c1C#CC(C)c1cc(-c2ccnc(C)c2)c2oc(C)nc2c1 (stereo unspecified)"
  class_assignment: "inactive"
- compound: "CCNC(=O)Oc1ccc(/C(=C(\\C)c2ccc(Cl)cc2)c2ccc(OCCN(CC)CC)cc2)cc1"
  class_assignment: "inactive"
- compound: "O=C(Nc1ccccc1Cl)c1ccc(NC2=C(Cl)C(=O)N(C3CCCCC3)C2=O)cc1"
  class_assignment: "inactive"
- compound: "CCN1CCN(c2nc(NCCCNc3ccnc4cc(Cl)ccc34)c3ccccc3n2)CC1"
  class_assignment: "inactive"
- compound: "Cc1nc2ccccc2n1C(=O)C[C@@H]1NC(=S)NC1=O"
  class_assignment: "inactive"
- compound: "O=C(CN1C(=O)/C(=C/c2ccc(Cl)cc2)SC1=S)NCCCN1CCOCC1"
  class_assignment: "inactive"
- compound: "Nc1ccn(-c2ccc(Br)cc2)c(=O)n1"
  class_assignment: "inactive"
- compound: "O=C1c2ccccc2OC=C(c2ccccc2)N1CCCCNc1ccc(S(=O)(=O)Nc2ncccn2)cc1"
  class_assignment: "inactive"
- compound: "O=C1NC(=S)NC(=O)C1CC(=O)n1c(-c2ccccc2)nc2ccccc21"
  class_assignment: "inactive"
- compound: "Cc1ccc2c(C(C[N+](=O)[O-])c3ccco3)c(-c3ccccc3)[nH]c2c1 (stereo unspecified)"
  class_assignment: "inactive"
- compound: "CSc1nc(NCc2ccccc2)c(C#N)c(-c2cccc([N+](=O)[O-])c2)n1"
  class_assignment: "inactive"
- compound: "Cc1cc(N2CCCCCC2)nc(NC2CCCC(Nc3ccnc4cc(Cl)ccc34)C2)n1 (stereo unspecified)"
  class_assignment: "active"
- compound: "COc1ccc(-n2nc(C)c3c(Nc4ccc(NC(=O)Nc5ccc(Cl)c(C(F)(F)F)c5)cc4)ncnc32)cc1"
  class_assignment: "active"

* * *

tested on: SK-MEL-2 melanoma; experiment: NCI-60 one-dose screen, 48 h; conditions: 10 µM unless noted
The panel holds about 83,000 compounds, 20% with a hit somewhere; the sample as a whole holds those more often. Active and inactive are the calls of the source. How the source made its calls: active means growth percent below 10; inactive means the rest.
Possible outcomes: active, inactive

- compound: "CC(C)(C)CC(C)(C)c1ccc(OCCOCC[N+](C)(C)Cc2ccccc2)cc1"
  system_tested: "SK-MEL-2 melanoma"
  class_assignment: "active"
- compound: "C/C1=C\\CC[C@@]2(C)O[C@H]2[C@H]2OC(=O)C(CN3CCN(CC4C(=O)O[C@H]5[C@H]4CC/C(C)=C/CC[C@@]4(C)O[C@@H]54)CC3)[C@@H]2CC1 (stereo partly specified)"
  system_tested: "SK-MEL-2 melanoma"
  class_assignment: "inactive"
- compound: "CCCCN1CCCn2c1nc1c2c(=O)n(CCC)c(=O)n1CCC"
  system_tested: "SK-MEL-2 melanoma"
  class_assignment: "inactive"
- compound: "COc1ccc(CN2c3ccccc3Sc3ccccc32)cc1O"
  system_tested: "SK-MEL-2 melanoma"
  class_assignment: "active"
- compound: "CC/C=C\\C[C@H]1C/C=C2/C(=O)C=C[C@H]2C/C=C\\CCCC(=O)O1"
  system_tested: "SK-MEL-2 melanoma"
  class_assignment: "inactive"
- compound: "C#CCOc1ccc2ncnc(Nc3cccc(CNC(=O)C=C)c3)c2c1"
  system_tested: "SK-MEL-2 melanoma"
  class_assignment: "inactive"

* * *

tested on: DU-145 prostate; assay: NCI-60 one-dose screen, 48 h (100 = growth as untreated, 0 = no growth, -100 = all killed); details: 10 µM unless noted
Compounds without any hit were thinned out: in the full panel of roughly 83,000, 20% have a hit.
Listed here: items and their measured growth.

- substance_smiles: "CSc1nc(Nc2cccc(NC(=O)/C(C#N)=C/c3c(Cl)cccc3Cl)c2)c(C#N)c(-c2cccc([N+](=O)[O-])c2)n1"
  system_tested: "DU-145 prostate"
  quantity_unit: "%"
  growth: 58
- substance_smiles: "C=C1c2nc3ccccc3n2C=C(c2cccc(Cl)c2)N1Cc1ccc(OC)cc1"
  system_tested: "DU-145 prostate"
  quantity_unit: "%"
  growth: 15.3
- substance_smiles: "O=C(COc1cccc(/C=C2\\CSc3ccccc3C2=O)c1)Nc1nccs1"
  system_tested: "DU-145 prostate"
  quantity_unit: "%"
  growth: 106

* * *

Test system: MALME-3M melanoma
Experiment: NCI-60 one-dose screen, 48 h (100 = growth as untreated, 0 = no growth, -100 = all killed)
Conditions: 10 µM unless noted
Protocol: Cells are grown in 96 well plates and exposed to the test compound for 48 hours. Compounds are tested at a single concentration, which is 10^-5 M for most compounds. The reported endpoint is percent growth (GI% or GIPRCNT), where numbers from 0 - 100% represent growth inhibition, and numbers from -100% - 0 represent cell death. For example, a value of 40 represents 60% growth inhibition. A value of 0 means no net growth occurred over the course of the experiment. […]
The panel holds about 83,000 compounds, 20% with a hit somewhere; the sample as a whole holds those more often.

- molecule: "C=C1C(=O)O[C@H]2[C@H]1CC/C(C=Nc1ccc(C(F)(F)F)cc1N)=C\\CC[C@@]1(C)O[C@@H]21"
  growth / %: -13.3
- molecule: "CC(=O)O[C@H]1[C@@H]2OC(=O)C(CSc3ccccc3)[C@@H]2C[C@H]2O[C@]2(C)CC/C=C(\\C)CCC[C@@H]1C (stereo partly drawn)"
  growth / %: 87.2
- molecule: "COc1ccc2c(c1)O/C(=C\\c1cccc(OCC(=O)Nc3nc4c(s3)CCCC4)c1)C2=O"
  growth / %: 109
- molecule: "CN1CCN=C1c1ccc(NC(=O)c2ccc(C(=O)Nc3ccc(C4=NCCN4C)cc3)cc2)cc1"
  growth / %: 80.6
- molecule: "O=C1c2c(O)cc(O)cc2-c2c(-c3ccc(O)cc3)oc3cc(O)cc1c23"
  growth / %: 54.7
- molecule: "CN(Cc1cc(Cl)cc(Cl)c1O)Cc1cc(Cl)cc(Cl)c1O"
  growth / %: 92.7
- molecule: "COc1ccc2[nH]cc(-c3noc(C(=O)c4cn(C)c5ccc(F)cc45)n3)c2c1"
  growth / %: 95.5
- molecule: "Cc1nn(-c2cc(=O)[nH]c3ccc(Cl)cc23)c(N)c1C#N"
  growth / %: 105
- molecule: "COc1ccc(-c2nn(-c3ccc(Cl)cc3)cc2-c2nc3ccccc3[nH]2)cc1"
  growth / %: 98.5
- molecule: "CCc1nnc(CNc2ccc(Cl)cc2)o1"
  growth / %: 95.6
- molecule: "CCCCC(=O)OCC1OC(n2cnc3c(=S)nc[nH]c32)C(OC(=O)CCCC)C1OC(=O)CCCC (stereo not drawn)"
  growth / %: 49.5
- molecule: "Cc1cn2c(/C=C3/C(=O)Nc4c3ccc3ccccc43)c(C(F)(F)F)nc2s1"
  growth / %: 42.4
- molecule: "Cc1cc(N2CCCC2)nc(NC2CCCC(Nc3ccnc4cc(Cl)ccc34)C2)n1 (stereo not drawn)"
  growth / %: -80.4
- molecule: "COc1cccc(-c2nc3sccn3c2-c2ccnc(NCCNS(=O)(=O)c3ccc(F)cc3)c2)c1"
  growth / %: 42.7
- molecule: "O=C(N/N=C/c1ccccc1O)c1ccccc1Nc1ccnc(C(F)(F)F)c1"
  growth / %: -0.966
- molecule: "COc1cc2c(cc1-c1c(C)noc1C)ncc1nc(C3CCOCC3)n([C@@H](C)COC(F)F)c12"
  growth / %: 66.3
- molecule: "COc1cccc(NC(=O)c2sc3nc(C)c(C(C)=O)cc3c2N)c1"
  growth / %: 71.2
- molecule: "COc1cc(/C=C/C(=O)c2ccc(O)c(CN3CCN(c4cc5c(cc4F)c(=O)c(C(=O)O)cn5C4CC4)CC3)c2)cc(OC)c1OC"
  growth / %: 74.3
- molecule: "CC1=CC(C)(C)Nc2ccc(Cc3ccc4c(c3)C(C)=CC(C)(C)N4)cc21"
  growth / %: 87.2
- molecule: "CC1=C[C@H]2c3c(c(O)c(O)c4oc5ccccc5c(=O)c34)[C@H](c3cc(O)c(O)c4oc5ccccc5c(=O)c34)[C@H]2C(C)(C)C1"
  growth / %: -1.47
- molecule: "Cc1ccc2c(C(C[N+](=O)[O-])c3ccco3)c(-c3ccccc3)[nH]c2c1 (stereo not drawn)"
  growth / %: 47.1
- molecule: "CCOC(=O)c1c(C)oc2ncnc(N3CCN(C(=O)COc4ccc(SC)cc4)CC3)c12"
  growth / %: 105
- molecule: "CC(C)C[C@@H](NC(=O)[C@@H](Cc1ccccc1)NC(=O)c1cnccn1)B1Oc2ccc(C[C@H](NC(=O)[C@H](Cc3ccc4c(c3)OB([C@@H](CC(C)C)NC(=O)[C@@H](Cc3ccccc3)NC(=O)c3cnccn3)O4)NC(=O)[C@@H](N)CC3CCC4OB([C@@H](CC(C)C)NC(=O)[C@@H](CC5CCCCC5)NC(=O)C5CNCCN5)OC4C3)C(=O)NCCCC[C@@H]3NC(=O)[C@@H](Cc4ccccc4)NC(=O)[C@H](CC(=O)O)NC(=O)CNC(=O)[C@H](CCCNC(=N)N)NC3=O)cc2O1 (stereo partly drawn)"
  growth / %: -20.3
- molecule: "C=CCSSc1ncnc2c1ncn2C1OC(CO)C(O)C1O (stereo not drawn)"
  growth / %: 48.3
- molecule: "CCOC(=O)c1c(CN2CCN(C)CC2)nc2ccc(Cl)cc2c1-c1ccccc1"
  growth / %: 38.6
- molecule: "CC1(C)CC[C@]2(C(=O)Nc3ccccn3)CC[C@]3(C)C(=CC[C@@H]4[C@@]5(C)C/C(=C/c6cccnc6)C(=O)C(C)(C)[C@@H]5CC[C@]43C)[C@H]2C1"
  growth / %: 48.3
- molecule: "COc1cc(-c2nn(-c3ccc(Br)cc3)cc2C(=O)O)ccc1O"
  growth / %: 110
- molecule: "COc1cccc(-c2nn(C(C)(C)C)cc2-c2ccnc(NCCCNS(=O)(=O)c3cccc4ccccc34)c2)c1"
  growth / %: 114
